Molecular target: LIF-LIFR interaction (recombinant human LIFR His-Tag / biotinylated LIF) (Homo sapiens, UniProt P42702)
Construct: purchased Sino Biological (LIFR); R&D Systems (LIF)
Sequence (P42702 45-833 limits assumed): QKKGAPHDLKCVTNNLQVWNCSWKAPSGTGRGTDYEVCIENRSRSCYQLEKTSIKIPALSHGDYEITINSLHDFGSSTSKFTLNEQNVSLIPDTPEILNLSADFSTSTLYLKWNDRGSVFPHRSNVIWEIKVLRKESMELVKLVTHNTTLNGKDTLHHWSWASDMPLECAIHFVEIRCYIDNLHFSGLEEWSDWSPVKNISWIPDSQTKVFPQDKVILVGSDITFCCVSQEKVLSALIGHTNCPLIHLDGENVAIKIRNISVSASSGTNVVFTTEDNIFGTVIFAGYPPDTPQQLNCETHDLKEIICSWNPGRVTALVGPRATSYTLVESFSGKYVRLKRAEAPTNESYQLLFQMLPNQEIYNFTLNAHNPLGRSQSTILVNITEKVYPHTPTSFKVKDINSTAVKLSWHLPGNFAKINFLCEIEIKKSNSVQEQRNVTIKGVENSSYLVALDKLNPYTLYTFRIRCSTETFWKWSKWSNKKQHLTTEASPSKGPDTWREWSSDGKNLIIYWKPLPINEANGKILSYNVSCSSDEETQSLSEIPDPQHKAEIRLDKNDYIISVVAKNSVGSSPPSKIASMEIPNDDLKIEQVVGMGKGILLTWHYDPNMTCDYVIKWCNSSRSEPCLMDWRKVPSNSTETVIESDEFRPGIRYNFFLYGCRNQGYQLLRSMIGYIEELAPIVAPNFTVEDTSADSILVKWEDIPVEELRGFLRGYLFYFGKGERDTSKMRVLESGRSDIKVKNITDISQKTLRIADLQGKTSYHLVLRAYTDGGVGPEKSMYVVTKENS
Assay: Cell-free AlphaScreen assay of LIF-LIFR interaction
Assay type: binding
Settings: read-out: % LIFR inhibition (10 μM)
Recorded measurements of inhibition at 10 µM, one per entry
assay_metric: inhibition at 10 µM

[[record]]
compound = "COC(=O)c1cccc(-c2ccc([C@H]3C[C@]4(C)C(=O)CC[C@H]4[C@@H]4CCC5=CC(=O)CCC5=C43)cc2)c1 [Compound 2s]"
test_result = "63.6%"

[[record]]
compound = "C[C@]12C[C@H](c3ccccc3)C3=C4CCC(=O)C=C4CC[C@H]3[C@@H]1CCC2=O [Compound 1c, 11β-Phenylestra-4,9-dien-3,17-dione]"
test_result = "34.3%"

[[record]]
compound = "C[C@]12C[C@H](c3ccc(-c4ccccc4)cc3)C3=C4CCC(=O)C=C4CC[C@H]3[C@@H]1CCC2=O [Compound 1a]"
test_result = "62.4%"

[[record]]
compound = "C[C@]12C[C@H](c3ccc(I)cc3)C3=C4CCC(=O)C=C4CC[C@H]3[C@@H]1CCC2=O [Compound 1f]"
test_result = "45.4%"

[[record]]
compound = "CN(C)c1ccc([C@H]2C[C@]3(C)C(=O)CC[C@H]3[C@@H]3CCC4=CC(=O)CCC4=C32)cc1 [Compound 1b]"
test_result = "60%"

[[record]]
compound = "C[C@]12C[C@H](c3ccc(-c4cccc(C(=O)O)c4)cc3)C3=C4CCC(=O)C=C4CC[C@H]3[C@@H]1CCC2=O [Compound 2t]"
test_result = "22.8%"

[[record]]
compound = "COc1ccc(C[C@H]2C[C@]3(C)C(=O)CC[C@H]3[C@@H]3CCC4=CC(=O)CCC4=C23)cc1 [Compound 1d]"
test_result = "26.5%"

[[record]]
compound = "C[C@]12C[C@H](c3ccc(C4CC4)cc3)C3=C4CCC(=O)C=C4CC[C@H]3[C@@H]1CCC2=O [Compound 1g]"
test_result = "45.1%"

[[record]]
compound = "C[C@]12C[C@H](Cc3ccc(O)cc3)C3=C4CCC(=O)C=C4CC[C@H]3[C@@H]1CCC2=O [Compound 1e]"
test_result = "29.3%"

[[record]]
compound = "C[C@]12C[C@H](c3ccc(-c4ccc(Br)nc4)cc3)C3=C4CCC(=O)C=C4CC[C@H]3[C@@H]1CCC2=O [Compound 2d]"
test_result = "42.1%"

